- Tgt: human Claudin-6 (CLDN6) (human) (UniProt P56747)
- Protocol Text: FACS, limiting dilution, ARK2 cells
Reported FACS signal at 8 nM values follow for various binders
Output spec: single numeric token, no unit.

Check out these entries, answers already filled in.
Binder	FACS signal at 8 nM
AB S8 (antibody, V domains shown) VH: QVQLVQSGAEVKKPGASVKMSCKASGYTFTTYTMHWVRQAPGQGLEWIGVINPSSGYTEYAQKFQGRVTLTADKSTSTVYMELSSLRSEDTAVYFCANGDYYVGYWGQGTLVTVSS VL: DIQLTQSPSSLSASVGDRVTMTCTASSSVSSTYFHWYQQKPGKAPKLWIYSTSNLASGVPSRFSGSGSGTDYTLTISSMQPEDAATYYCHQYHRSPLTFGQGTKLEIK	42600
AB S7 (antibody, V domains shown) VH: QVQLVQSGAEVKKPGASVKMSCKASGYTFTTYTIHWVRQAPGQGLEWIGFINPSSGYTEYAQKFQGRVTLTADKSTSTVYMELSSLRSEDTAVYFCANGDYYVAYWGQGTLVTVSS VL: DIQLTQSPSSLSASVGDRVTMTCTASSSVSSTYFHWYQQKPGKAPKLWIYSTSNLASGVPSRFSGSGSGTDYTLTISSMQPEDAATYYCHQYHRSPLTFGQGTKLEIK	6290
AB3-7 (antibody, V domains shown, humanized; also called AB23; humanized AB3-7) VH: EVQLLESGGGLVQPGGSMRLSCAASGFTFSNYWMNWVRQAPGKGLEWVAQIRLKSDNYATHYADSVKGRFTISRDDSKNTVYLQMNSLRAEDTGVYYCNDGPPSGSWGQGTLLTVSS VL: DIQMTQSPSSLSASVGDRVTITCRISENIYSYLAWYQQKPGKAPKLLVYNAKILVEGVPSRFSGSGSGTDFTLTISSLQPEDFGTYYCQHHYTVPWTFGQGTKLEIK	991

Input line: Complete the entry with FACS signal at 8 nM for AB1-11 (antibody, V domains shown, humanized; also called humanized AB1-11; HU-11) VH: QVQLVQSGAEVKKPGASVKMSCKASGYTFTTYTMHWVRQAPGQGLEWIGFINPSSGYTDYAQKFQGRVTLTADKSTSTVYMELSSLRSEDTAVYYCANGDYYVAYWGQGTLVTVSS VL: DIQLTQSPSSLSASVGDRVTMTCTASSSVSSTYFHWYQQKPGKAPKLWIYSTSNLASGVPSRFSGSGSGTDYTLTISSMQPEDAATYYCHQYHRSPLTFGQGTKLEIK
Output line: 2290

Input line: Complete the entry with FACS signal at 8 nM for AB S12 (antibody, V domains shown) VH: QVQLVQSGAEVKKPGASVKMSCKASGYTFTTYTMHWVRQAPGQGLEWIGFINPSSGYTEYAQKFQGRVTLTADKSTSTVYMELSSLRSEDTAVYFCANGDYYVGYWGQGTLVTVSS VL: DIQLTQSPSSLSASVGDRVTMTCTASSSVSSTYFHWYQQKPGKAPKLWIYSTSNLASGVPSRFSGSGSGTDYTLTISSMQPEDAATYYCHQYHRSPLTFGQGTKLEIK
Output line: 8850
